biological target: Gal3S4S(b1-4)GlcNAc; test: glycan array binding signal (z-score within array); higher = stronger binding; details: glycan notation: IUPAC condensed, linker removed
The entries come from a sample that favours the strongest signals as a whole.
Parameter Measured: glycan array binding signal (z-score)
Enter the number alone.

Binder	glycan array binding signal (z-score)
Epa3to2 (Candida glabrata) (protein) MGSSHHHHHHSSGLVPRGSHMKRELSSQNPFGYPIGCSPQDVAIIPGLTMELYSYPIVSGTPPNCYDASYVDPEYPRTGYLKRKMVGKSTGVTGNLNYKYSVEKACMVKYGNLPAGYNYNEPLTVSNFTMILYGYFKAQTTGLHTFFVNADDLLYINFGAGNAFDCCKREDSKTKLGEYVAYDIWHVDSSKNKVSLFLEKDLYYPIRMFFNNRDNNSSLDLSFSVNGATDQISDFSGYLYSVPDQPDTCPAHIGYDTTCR	-0.354
CBM32-4 (Clostridium perfringens), P26831 (protein) MGSSHHHHHHSSGLVPRGSHMASVYEPSLVDAYVGDDGAKKAVDGDLKTRVKFLGAPSTGDTIVYDLGQEILVDNLKYVVLDTEVDHVRDGKIQLSLDGETWTDAINIGDGVENGVDDMFSTPLKNGYKHGNQSGGIVPIDSAYVEGDNLNQKARYVRILFTAPYRHRWTVINELMINNGEYIPTVNDPT	3.87
BabA (Helicobacter pylori), O52269_HELPY (protein) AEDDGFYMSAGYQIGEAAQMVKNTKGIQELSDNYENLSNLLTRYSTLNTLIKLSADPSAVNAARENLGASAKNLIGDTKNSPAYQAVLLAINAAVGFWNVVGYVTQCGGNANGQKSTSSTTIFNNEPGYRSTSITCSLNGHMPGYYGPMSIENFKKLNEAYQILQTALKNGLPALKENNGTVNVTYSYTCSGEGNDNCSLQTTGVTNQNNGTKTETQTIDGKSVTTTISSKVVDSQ	0.144
GNAT (Pseudomonas aeruginosa), Q9HV14 (protein) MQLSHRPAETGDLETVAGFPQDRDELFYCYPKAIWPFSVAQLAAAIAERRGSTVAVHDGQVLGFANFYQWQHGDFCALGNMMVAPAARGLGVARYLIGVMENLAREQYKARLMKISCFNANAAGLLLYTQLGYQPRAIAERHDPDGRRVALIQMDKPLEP	-0.461

Next item in the queue.
Notebook: Epa23 (Candida glabrata) (protein) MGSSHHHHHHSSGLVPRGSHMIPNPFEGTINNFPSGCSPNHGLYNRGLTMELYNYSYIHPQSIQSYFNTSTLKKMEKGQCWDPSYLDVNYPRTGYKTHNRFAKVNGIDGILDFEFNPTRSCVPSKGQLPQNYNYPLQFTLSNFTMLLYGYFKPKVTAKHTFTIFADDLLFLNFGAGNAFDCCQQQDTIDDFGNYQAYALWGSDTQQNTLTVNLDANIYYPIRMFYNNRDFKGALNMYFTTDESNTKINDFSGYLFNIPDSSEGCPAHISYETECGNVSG , glycan array binding signal (z-score) read as -0.241
